Can you tell me caspase-1 activity compared to control for the items I'm about to list?
test system: caspase-1; assay: Caspase 1 activity, Caspase-Glo 1 Inflammasome Assay; format: cell-based, human; settings: highest concentration tested, 72 h
Please give the number followed by its unit.

CC/C(=C(/CC)c1ccc(O)cc1)c1ccc(O)cc1    1.84 fold change
CC(C)(c1ccc(O)cc1)c1ccc(O)cc1    1.64 fold change
CCC(C)(C)c1ccc(O)cc1    1.5 fold change

Consider the additional molecule presented here.
Q: Please look up its caspase-1 activity compared to control: `CCCOC(=O)c1ccc(O)cc1`
Ans: 2.7 fold change

###

assay: Neutral Red cell viability assay on JEG-Tox cells, 72 h; type: cell-based, human; conditions: human, JEG-Tox cells; 15 μM, 72 h
MEASURED_QUANTITY: viability at 72 h, 15 µM (%)
Answers are plain numbers, in %.

Q: Please look up its viability at 72 h, 15 µM: `CC/C(=C(/CC)c1ccc(O)cc1)c1ccc(O)cc1`
Ans: 40

###

tested on: caspase-1; assay: Caspase 1 activity, Caspase-Glo 1 Inflammasome Assay; assay type: cell-based, human; conditions: Table 4 summary, 72 h
MEASURED_QUANTITY: Casp-1 activation (concentration) (µM)
Give bare numbers, in µM.

Take a look at these entries with their results.
CC/C(=C(/CC)c1ccc(O)cc1)c1ccc(O)cc1 [diethylstilbestrol]    7.5
CCCOC(=O)c1ccc(O)cc1 [propylparaben]    100
CC(C)(c1ccc(O)cc1)c1ccc(O)cc1 [bisphenol A, Bisphenol A]    20

Q: Please look up its Casp-1 activation (concentration): CCC(C)(C)c1ccc(O)cc1 [4-tert-amylphenol]
Ans: 50

###

Assay: Neutral Red cell viability assay on JEG-Tox cells, 72 h
Format: cell-based, human
Conditions: human
Description: The JEG-3 human trophoblast cell line, derived from a human placental carcinoma, was obtained from the American Type Culture Collection (ATCC HTB-36). […] When the JEG-3 cells reached subconfluency, they were detached using trypsin-EDTA and counted. […] Cell viability was evaluated using the Neutral Red assay. […] After homogenization, the fluorescence signal was scanned (λexc=540 nm, λem=600 nm) with a Tecan Spark microplate reader (Mannedorf, Switzerland). […]
MEASURED_QUANTITY: viability at 72 h, 50 µM (%)
Give bare numbers, in %.

Q: Please look up its viability at 72 h, 50 µM: CCCCOC(=O)c1ccccc1C(=O)OCCCC [dibutyl phthalate]
Ans: 55

###

tested on: caspase-1; experiment: Caspase 1 activity, Caspase-Glo 1 Inflammasome Assay; format: cell-based, human; conditions: 72 h
MEASURED_QUANTITY: effect on caspase-1 activity

Take a look at these entries with their results.
CCCCOC(=O)c1ccccc1C(=O)OCCCC [dibutyl phthalate]    no effect
CC(C)(c1ccc(O)cc1)c1ccc(O)cc1    activated caspase-1
CC/C(=C(/CC)c1ccc(O)cc1)c1ccc(O)cc1    activated caspase-1
CC12CCC(/C(=C/c3ccccc3)C1=O)C2(C)C (stereo not drawn)    no effect
CCC(C)(C)c1ccc(O)cc1    activated caspase-1
CCCOC(=O)c1ccc(O)cc1    activated caspase-1
Oc1cc(Cl)ccc1Oc1ccc(Cl)cc1Cl    no effect
CCCCC(CC)COC(=O)c1ccccc1C(=O)OCC(CC)CCCC (stereo not drawn) [DEHP, Di(2-ethylhexyl)phtalate]    no effect

Consider the additional molecule presented here.
Q: Please look up its effect on caspase-1 activity: CCCCOC(=O)c1ccccc1C(=O)OCc1ccccc1 [benzyl butyl phthalate]
Ans: no effect
